system: UniProt:P34972
Sequence (P34972 whole entry): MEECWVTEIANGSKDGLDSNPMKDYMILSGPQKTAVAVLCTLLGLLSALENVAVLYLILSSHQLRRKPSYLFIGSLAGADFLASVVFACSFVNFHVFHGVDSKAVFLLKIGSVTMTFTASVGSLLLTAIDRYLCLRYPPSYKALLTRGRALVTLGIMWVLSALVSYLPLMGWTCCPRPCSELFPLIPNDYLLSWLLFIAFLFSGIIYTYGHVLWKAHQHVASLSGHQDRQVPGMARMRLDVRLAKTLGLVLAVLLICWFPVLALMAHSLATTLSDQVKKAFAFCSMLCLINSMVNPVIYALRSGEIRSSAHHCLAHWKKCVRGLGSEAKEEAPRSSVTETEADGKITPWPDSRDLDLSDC
procedure.details: In vitro binding assay using hCB2-CHO membranes, [3H]-CP-55,940 displacement (Protocol IV)
Set-up: expressed in transfected cells; host or cells: CHO (hCB2-CHO, generated in-house)
condition.context: hCB2-CHO membranes, [3H]-CP-55,940 displacement
Attribute: % Displacement Protocol IV
# unit: % | format: bare number

# compound, % Displacement Protocol IV / %
records = [
    ("Cn1nc2c(c1C(=O)NN1CCCCC1)C1CC3CC(CC2C3)C1 [Example 189a]", 0.81),
    ("O=C(NN(c1ccccc1)c1ccccc1)c1nn(-c2ccc(Cl)cc2Cl)c2c1C1CC3CC(C1)CC2C3", 15.26),
    ("Cn1nc(C(=O)NN2CCCCC2)c2c1C1CC3CC(CC2C3)C1 [Example 189b]", 2.56),
]

IN: Given the entry O=C(NN1CCCCC1)c1n[nH]c2c1C1CC3CC(CC2C3)C1 , report its measured % Displacement Protocol IV.
OUT: 0.7

IN: Given the entry O=C(NN1CCCCC1)c1nn(-c2ccccc2Cl)c2c1C1CC3CC(C1)CC2C3 , report its measured % Displacement Protocol IV.
OUT: 8.76

IN: Given the entry O=C(NCCc1ccccc1)c1nn(-c2ccc(Cl)cc2)c2c1C1CC3CC(C1)CC2C3 , report its measured % Displacement Protocol IV.
OUT: 15.44

IN: Given the entry CC12CCC(c3c(C(=O)N[C@@H](CO)c4ccccc4)nn(-c4ccc(F)cc4F)c31)C2(C)C (some centres unmarked) , report its measured % Displacement Protocol IV.
OUT: 15.5

IN: Given the entry COC(=O)[C@@H](NC(=O)c1nn(-c2ccc(F)cc2F)c2c1C1CC3CC(C1)CC2C3)c1ccccc1 , report its measured % Displacement Protocol IV.
OUT: 72.38
